protocol_description: In vitro evaluation of cytotoxicity in C8166 cells infected with HIV-1 IIIB.
Format: cell-based
conditions: human, read-out: TC50 (the source's name)

{"molecule": "OC[C@H]1O[C@@H](n2cnc3c(NC4CCCC4)cc(Cl)nc32)C[C@@H]1O", "unit_of_measure": "µM", "limit_operator": "=", "CC50": 7}
{"molecule": "OCC1CCC(n2cnc3c(NC4CCC4)cc(Cl)nc32)O1 (stereo not drawn)", "unit_of_measure": "µM", "limit_operator": "=", "CC50": 250}
{"molecule": "CNc1cc(Cl)nc2c1ncn2C1O[C@H](CO)[C@@H](O)[C@H]1O (stereo partly drawn)", "unit_of_measure": "µM", "limit_operator": ">", "CC50": 100}
{"molecule": "Nc1ccnc2c1ncn2[C@@H]1O[C@H](CO)[C@@H](O)[C@H]1O", "unit_of_measure": "µM", "limit_operator": "=", "CC50": 2}
{"molecule": "OC[C@H]1OC(n2cnc3c(NC4CCCCCC4)ccnc32)[C@H](O)[C@@H]1O (stereo partly drawn)", "unit_of_measure": "µM", "limit_operator": "=", "CC50": 100}
{"molecule": "OC[C@H]1O[C@@H](n2cnc3c(NC4CC4)ccnc32)C[C@@H]1O", "unit_of_measure": "µM", "limit_operator": ">", "CC50": 100}
{"molecule": "OC[C@H]1O[C@@H](n2cnc3c(NC4CCCCC4)ccnc32)[C@H](O)[C@@H]1O", "unit_of_measure": "µM", "limit_operator": "=", "CC50": 400}
{"molecule": "Nc1ccnc2c1ncn2[C@H]1C[C@H](O)[C@@H](CO)O1", "unit_of_measure": "µM", "limit_operator": ">", "CC50": 100}
{"molecule": "OC[C@H]1O[C@@H](n2cnc3c(NC4CCC4)cc(Cl)nc32)C[C@@H]1O", "unit_of_measure": "µM", "limit_operator": "=", "CC50": 400}
{"molecule": "OCC1CCC(n2cnc3c(NC4CCCCCC4)cc(Cl)nc32)O1 (stereo not drawn)", "unit_of_measure": "µM", "limit_operator": "=", "CC50": 8}
{"molecule": "OC[C@H]1OC(n2cnc3c(NC4CCCCCCC4)ccnc32)[C@H](O)[C@@H]1O (stereo partly drawn)", "unit_of_measure": "µM", "limit_operator": "=", "CC50": 50}
{"molecule": "OC[C@H]1O[C@@H](n2cnc3c(NC4CCCCC4)cc(Cl)nc32)C[C@@H]1O", "unit_of_measure": "µM", "limit_operator": "=", "CC50": 100}
{"molecule": "Nc1cc(Cl)nc2c1ncn2[C@@H]1O[C@H](CO)[C@@H](O)[C@H]1O", "unit_of_measure": "µM", "limit_operator": ">", "CC50": 100}
{"molecule": "OC[C@H]1O[C@@H](n2cnc3c(NC4CC4)cc(Cl)nc32)C[C@@H]1O", "unit_of_measure": "µM", "limit_operator": "=", "CC50": 500}
{"molecule": "CNc1ccnc2c1ncn2[C@H]1C[C@H](O)[C@@H](CO)O1", "unit_of_measure": "µM", "limit_operator": ">", "CC50": 100}
{"molecule": "Nc1cc(Cl)nc2c1ncn2[C@H]1C[C@H](O)[C@@H](CO)O1", "unit_of_measure": "µM", "limit_operator": ">", "CC50": 100}
{"molecule": "OC[C@H]1O[C@@H](n2cnc3c(NC4CCC4)ccnc32)C[C@@H]1O", "unit_of_measure": "µM", "limit_operator": "=", "CC50": 400}
{"molecule": "OC[C@H]1O[C@@H](n2cnc3c(NC4CC4)ccnc32)[C@H](O)[C@@H]1O", "unit_of_measure": "µM", "limit_operator": ">", "CC50": 100}
{"molecule": "Nc1ncnc2c1ncn2[C@H]1CC[C@@H](CO)O1", "unit_of_measure": "µM", "limit_operator": ">", "CC50": 100}
{"molecule": "OC[C@H]1O[C@@H](n2cnc3c(NC4CCCCCCC4)ccnc32)C[C@@H]1O", "unit_of_measure": "µM", "limit_operator": "=", "CC50": 40}
{"molecule": "OCC1CCC(n2cnc3c(NC4CCCCC4)cc(Cl)nc32)O1 (stereo not drawn)", "unit_of_measure": "µM", "limit_operator": "=", "CC50": 20}
{"molecule": "OC[C@H]1O[C@@H](n2cnc3c(NC4CC4)cc(Cl)nc32)[C@H](O)[C@@H]1O", "unit_of_measure": "µM", "limit_operator": "=", "CC50": 500}
{"molecule": "OC[C@H]1O[C@@H](n2cnc3c(NC4CCCC4)cc(Cl)nc32)[C@H](O)[C@@H]1O", "unit_of_measure": "µM", "limit_operator": "=", "CC50": 100}
{"molecule": "OC[C@H]1OC(n2cnc3c(NC4CCCCCCC4)cc(Cl)nc32)[C@H](O)[C@@H]1O (stereo partly drawn)", "unit_of_measure": "µM", "limit_operator": "=", "CC50": 40}
{"molecule": "CNc1ccnc2c1ncn2C1O[C@H](CO)[C@@H](O)[C@H]1O (stereo partly drawn)", "unit_of_measure": "µM", "limit_operator": ">", "CC50": 100}
{"molecule": "OC[C@H]1O[C@@H](n2cnc3c(NC4CCCCCCC4)cc(Cl)nc32)C[C@@H]1O", "unit_of_measure": "µM", "limit_operator": "=", "CC50": 40}
{"molecule": "CNc1ccnc2c1ncn2C1CCC(CO)O1 (stereo not drawn)", "unit_of_measure": "µM", "limit_operator": "=", "CC50": 100}
{"molecule": "CNc1cc(Cl)nc2c1ncn2C1CCC(CO)O1 (stereo not drawn)", "unit_of_measure": "µM", "limit_operator": ">", "CC50": 100}

# credit: ChEMBL document CHEMBL1128456
